experimental target: 5-HT1A receptor (Cavia porcellus)
Construct: in the guine-pig ileum in in vitro; from tissue; host or cells: guinea-pig isolated ileum
Sequence (A0A286Y074 1-421): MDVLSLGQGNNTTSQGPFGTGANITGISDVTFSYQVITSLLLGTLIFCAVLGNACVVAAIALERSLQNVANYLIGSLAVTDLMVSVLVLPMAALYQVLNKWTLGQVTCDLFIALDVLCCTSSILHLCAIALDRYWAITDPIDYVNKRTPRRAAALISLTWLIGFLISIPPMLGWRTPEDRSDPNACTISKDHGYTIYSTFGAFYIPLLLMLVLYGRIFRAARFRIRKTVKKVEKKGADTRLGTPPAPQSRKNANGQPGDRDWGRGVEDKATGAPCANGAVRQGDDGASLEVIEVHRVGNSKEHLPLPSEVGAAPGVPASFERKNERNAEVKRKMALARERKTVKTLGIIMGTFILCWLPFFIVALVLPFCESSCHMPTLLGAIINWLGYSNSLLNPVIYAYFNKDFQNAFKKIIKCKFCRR
protocol notes: 5-HT1A receptor antagonism: antagonism of 5-carboxamidotryptamine in isolated ileum in vitro
Design: species or system guine-pig
measurement conditions: guinea-pig ileum in vitro, read-out: pA2 (converted)
Rule: Kb below 100 nM gives 1, anything at or above gives -1.

# count of solved cases: 3
[[record]]
molecule = "COc1ccccc1N1CCN(CC(C(=O)NC2CC2)c2ccccc2)CC1 (centres unmarked) [Example 31, cyclopropyl-amide]"
discrete_label = 1

[[record]]
molecule = "COc1ccccc1N1CCN(CC(C(=O)NCCN2C(=O)CC3(CCCC3)CC2=O)c2ccccc2)CC1 (centres unmarked)"
discrete_label = -1

[[record]]
molecule = "COC(=O)C(CN1CCN(c2ccccc2OC)CC1)c1ccccc1 (centres unmarked)"
discrete_label = -1


Incoming: Consider the molecule COc1ccccc1N1CCN(CC(C(=O)NC2CCCCC2)c2ccccc2)CC1 (centres unmarked) . Is its Kb strictly less than 100 nM?
Outgoing: -1

Incoming: Consider the molecule COc1ccccc1N1CCN(CC(C(=O)N2CCCC2)c2ccccc2)CC1 (centres unmarked) . Is its Kb strictly less than 100 nM?
Outgoing: -1

Incoming: Consider the molecule COc1ccccc1N1CCN(CC(C(=O)OCC(C)C)c2ccccc2)CC1 (centres unmarked) . Is its Kb strictly less than 100 nM?
Outgoing: -1

Incoming: Consider the molecule `COc1ccccc1N1CCN(C[C@@H](NC(=O)C2CCCCC2)c2ccccc2)CC1` . Is its Kb strictly less than 100 nM?
Outgoing: 1
